# assay-target: ZFP SBS#785 (synthetic)
# Sequence (chain, as listed by the source): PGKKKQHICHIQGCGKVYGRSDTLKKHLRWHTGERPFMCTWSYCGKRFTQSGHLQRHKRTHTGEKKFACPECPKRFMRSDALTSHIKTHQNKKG
# assay-overview: EMSA
# experimental-conditions: tags: MBP fusion

| binder | output-unit | Kd |
| --- | --- | --- |
| TTGGGAGCGG (dsDNA) DNA 1: TTGGGAGCGG DNA 2: CCGCTCCCAA | nM | 50 |
